These data points were gathered from the RNAGym collection of RNA variant scans (doi:10.7554/elife.80360).

B1: Hairpin Ribozyme (parent)
chain: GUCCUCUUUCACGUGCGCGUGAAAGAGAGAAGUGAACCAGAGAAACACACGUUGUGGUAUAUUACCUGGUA

variants of: B1; experiment: self-cleavage, relative activity (ratio to wild type); higher = more cleavage; co-transcriptional

Record Sequence: GUCCUCUUUCACGUGCGCGUGAAACAGAGAAGUGAACCAGGGAAACACACGUUGUGGUAUAUUACCUGGUA [G25C A41G]
self-cleavage: 0.298
--
Record Sequence: GUCCUCUUUCACGUGCGCGUGAAAGAGAGAAGUGAACCAGAGAAACACACGUCAUGGUAUAUUACCUGGUA [U53C G54A]
self-cleavage: 0.418
--
Record Sequence: GUCCUCUUUCACGUGCGCGUGAAAGAGAGCAGUGAACCAGAGAAACACACGUUGUGGAAUAUUACCUGGUA [A30C U58A]
self-cleavage: 0.134
--
Record Sequence: GUCCUCUUUCACGUGCGCGUGAUAGAGAGAAGUGAACCAGAGAAACACACGUUGUGGUAUAUUACCUGGUG [A23U A71G]
self-cleavage: 0.876
--
Record Sequence: GUCCUCUUUCACGUGCGCGUGAAAGAGAGAACUGAACCAGAGAAACACACGUUGUGGUAUAUUACCUGGUU [G32C A71U]
self-cleavage: 0.157
--
Record Sequence: GCCCUCUUUCACGUGCGCGUCAAAGAGAGAAGUGAACCAGAGAAACACACGUUGUGGUAUAUUACCUGGUA [U2C G21C]
self-cleavage: 0.213
--
Record Sequence: GUCCUCUUUCACGUGCGCGUGAAAGAGAGAAGUGAAGCAGAGAAACACUCGUUGUGGUAUAUUACCUGGUA [C37G A49U]
self-cleavage: 0.153
--
Record Sequence: GUCCUCUUUCACGUGCGCGUGAAAGAGAGAAGUGAACCAGAGAAACAUACGGUGUGGUAUAUUACCUGGUA [C48U U52G]
self-cleavage: 0.311
--
Record Sequence: GUCCUCUUUCACGUGUGCGUGAAAGAGAGAAGUGAACCAGAGAAACACACGUUGUGGUAUAUUAUCUGGUA [C16U C65U]
self-cleavage: 0.443
--
Record Sequence: GUCCUCUUUCACGUUCGCGUGAAAGAGAGUAGUGAACCAGAGAAACACACGUUGUGGUAUAUUACCUGGUA [G15U A30U]
self-cleavage: 0.146
--
Record Sequence: GUCCUCUUUCACGUGCGCGUGAAAGAGAGAAGUGAACCAUAGAAACACACGUUGUGGUAUAUUCCCUGGUA [G40U A64C]
self-cleavage: 0.175
--
Record Sequence: GUCCUCUUUCACGUGCGCGUGAAAGAGAGAAGUGAACCAGAGAAACACACGUUUUGGGAUAUUACCUGGUA [G54U U58G]
self-cleavage: 0.401
--
Record Sequence: GUCCUCUUUCACGUGCGCGUGAAAGAGAGAAGUGAACCAGAGAUACACACGUUGCGGUAUAUUACCUGGUA [A44U U55C]
self-cleavage: 0.168
--
Record Sequence: GUCCUCUUUCACGUGCGCGUGAAGGAGAGAAGUGAACCAGAGAAACAAACGUUGUGGUAUAUUACCUGGUA [A24G C48A]
self-cleavage: 0.191
--
Record Sequence: GUCCUCUUUCACGUGCGCGUGAAAGAGAGAAGUGAACCAGAGAAACACACGUUGUGGUAAAUUACCUGGUA [U60A]
self-cleavage: 0.849
--
Record Sequence: UUCCUCUUUCACGUGCGCGUGAAAGAGAGAAGUGAACCAGAGAAACAGACGUUGUGGUAUAUUACCUGGUA [G1U C48G]
self-cleavage: 0.0484
--
Record Sequence: GUCCUCUUUCACGUGCGCGUGAAAGAGAGAAGUGAACCAGAGAAACACACGUUGUGGGAUAUUACCUGAUA [U58G G69A]
self-cleavage: 0.292
--
Record Sequence: GUCCUUUUUCACGUGCGCGUGAAAGAGAGAAGUGAACCUGAGAAACACACGUUGUGGUAUAUUACCUGGUA [C6U A39U]
self-cleavage: 0.381
